Origin of measurements: patent US8158165B2

Study Target: human glucocorticoid receptors (Homo sapiens, UniProt P04150)
Construct: endogenous in cells
Sequence (P04150 whole entry): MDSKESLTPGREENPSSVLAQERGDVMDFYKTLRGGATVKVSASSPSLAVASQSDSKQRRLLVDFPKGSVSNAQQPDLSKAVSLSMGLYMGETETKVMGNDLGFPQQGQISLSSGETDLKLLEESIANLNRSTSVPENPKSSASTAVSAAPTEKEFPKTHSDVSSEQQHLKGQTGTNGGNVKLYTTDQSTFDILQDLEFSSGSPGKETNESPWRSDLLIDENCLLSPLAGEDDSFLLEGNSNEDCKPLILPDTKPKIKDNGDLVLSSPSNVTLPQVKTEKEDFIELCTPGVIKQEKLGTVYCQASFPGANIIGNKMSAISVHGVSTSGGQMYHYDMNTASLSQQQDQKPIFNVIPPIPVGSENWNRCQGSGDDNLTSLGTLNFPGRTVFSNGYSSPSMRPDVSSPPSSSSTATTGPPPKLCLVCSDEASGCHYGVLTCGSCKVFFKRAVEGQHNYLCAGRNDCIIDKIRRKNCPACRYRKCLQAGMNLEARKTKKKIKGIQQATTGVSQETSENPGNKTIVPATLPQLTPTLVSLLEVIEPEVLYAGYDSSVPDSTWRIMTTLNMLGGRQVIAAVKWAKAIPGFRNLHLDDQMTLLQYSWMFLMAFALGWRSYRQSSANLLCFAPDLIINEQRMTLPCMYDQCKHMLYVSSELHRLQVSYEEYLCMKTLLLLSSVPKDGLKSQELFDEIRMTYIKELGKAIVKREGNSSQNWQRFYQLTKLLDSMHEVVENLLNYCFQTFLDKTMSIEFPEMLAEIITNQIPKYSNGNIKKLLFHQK
Experiment Description: glucocorticoid receptor (GR) binding assay, [3H]Dexamethasone, HeLa S3 cells
Value Type: pKi
Please keep in mind that pKi is minus log10 of the molar concentration; only the number is needed.

Reported pKi, molecule Cc1coc2c1C[C@H]1[C@H](C)C=CC(=O)[C@]1(C)C2 (relative stereo) : ____ 4.64

----------
Experiment Description: Cytotoxicity, Mediator Release, Con A-Induced (AlamarBlue)
Format: cell-based, human
Condition Details: human, pH 7.4
Value Type: IC50

Reported IC50, molecule Cc1coc2c1C[C@H]1[C@H](C)C=CC(=O)[C@]1(C)C2 (relative stereo) : ____ 58.5 µM

----------
Study Target: human glucocorticoid receptors (Homo sapiens)
Construct: endogenous in cells
Experiment Description: glucocorticoid receptor (GR) binding assay, [3H]Dexamethasone, HeLa S3 cells
Value Type: pIC50
Please keep in mind that pIC50 is minus log10 of the molar concentration; only the number is needed.

Reported pIC50, compound Cc1coc2c1C[C@H]1[C@H](C)C=CC(=O)[C@]1(C)C2 (relative stereo) [compound 1] : ____ 4.30

----------
System: IL-5
Experiment Description: Mediator Release, IL-5 (ConA-stimulated PBMNL cells)
Format: cell-based, human
Condition Details: Homo sapiens
Value Type: EC50 (µM)
The figure you give is taken to be in µM; do not add the unit.

Reported EC50, compound Cc1coc2c1C[C@H]1[C@H](C)C=CC(=O)[C@]1(C)C2 (relative stereo) [compound 1] : ____ 16.1
